Entries annotated with measured hEphB6-SEAP-: absorbance at 450 nm, percentage with respect to hEphA4-SEAP-His as 100%
Biological target: T1, human EphB6 (Homo sapiens, UniProt O15197)
T1 construct: a protein of the extracellular region of each human Eph receptor fused with the SEAP protein and the His tag; made in house; host or cells: Expi293F cells
T1 sequence (O15197 32-594 limits assumed): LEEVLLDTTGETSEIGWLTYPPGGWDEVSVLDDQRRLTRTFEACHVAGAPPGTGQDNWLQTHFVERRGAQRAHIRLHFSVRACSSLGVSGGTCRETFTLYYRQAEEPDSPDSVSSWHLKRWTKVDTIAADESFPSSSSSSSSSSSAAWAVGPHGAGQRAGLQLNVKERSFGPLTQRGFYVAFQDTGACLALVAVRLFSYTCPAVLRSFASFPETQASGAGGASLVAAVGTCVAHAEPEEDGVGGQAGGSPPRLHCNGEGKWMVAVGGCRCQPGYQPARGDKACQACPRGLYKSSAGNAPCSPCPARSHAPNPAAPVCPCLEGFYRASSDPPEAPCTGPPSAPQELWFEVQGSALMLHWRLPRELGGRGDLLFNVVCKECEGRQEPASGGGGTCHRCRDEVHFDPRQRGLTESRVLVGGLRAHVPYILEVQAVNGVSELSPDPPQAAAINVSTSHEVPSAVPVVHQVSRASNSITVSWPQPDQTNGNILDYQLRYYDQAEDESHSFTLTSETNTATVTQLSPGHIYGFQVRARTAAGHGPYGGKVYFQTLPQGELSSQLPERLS
Assay: Selectivity ELISA of humanized antibodies for human Eph receptor
Format: binding
Conditions: coated protein 1 nM
I only need the number, in %, no unit after it.

Some molecules with known hEphB6-SEAP-: absorbance at 450 nm, percentage with respect to hEphA4-SEAP-His as 100% results, for comparison:
82 (antibody, V domains shown, constant regions without entry; synthetic humanized antibody light chain variable region sequence; synthetic humanized antibody heavy chain variable region sequence) VL: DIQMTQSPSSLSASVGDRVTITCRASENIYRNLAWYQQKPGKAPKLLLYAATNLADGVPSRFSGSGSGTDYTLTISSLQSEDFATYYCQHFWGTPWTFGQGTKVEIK VH: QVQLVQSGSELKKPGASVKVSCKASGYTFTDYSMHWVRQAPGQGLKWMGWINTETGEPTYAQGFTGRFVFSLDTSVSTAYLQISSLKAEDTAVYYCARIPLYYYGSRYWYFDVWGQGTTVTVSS : 5.5
135 (antibody, V domains shown, synthetic humanized antibody heavy chain variable region sequence; synthetic humanized antibody light chain variable region sequence) VH: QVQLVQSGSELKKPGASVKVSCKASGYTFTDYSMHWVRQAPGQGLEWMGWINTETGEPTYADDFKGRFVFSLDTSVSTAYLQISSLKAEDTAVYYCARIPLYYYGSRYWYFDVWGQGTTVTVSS VL: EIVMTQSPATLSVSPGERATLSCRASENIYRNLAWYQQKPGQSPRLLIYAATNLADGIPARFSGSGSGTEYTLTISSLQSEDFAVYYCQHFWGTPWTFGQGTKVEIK : 5.3

# query: hEphB6-SEAP-: absorbance at 450 nm, percentage with respect to hEphA4-SEAP-His as 100% of entry 158 (antibody, V domains shown, synthetic humanized antibody heavy chain variable region sequence; synthetic humanized antibody light chain variable region sequence) VH: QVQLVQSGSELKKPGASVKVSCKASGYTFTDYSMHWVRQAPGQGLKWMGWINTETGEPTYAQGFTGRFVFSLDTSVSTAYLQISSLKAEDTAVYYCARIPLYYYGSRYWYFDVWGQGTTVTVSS VL: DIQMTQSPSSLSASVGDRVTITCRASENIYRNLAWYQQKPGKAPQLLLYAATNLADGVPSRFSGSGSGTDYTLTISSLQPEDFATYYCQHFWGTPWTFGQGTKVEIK
6.3

# query: hEphB6-SEAP-: absorbance at 450 nm, percentage with respect to hEphA4-SEAP-His as 100% of entry 96 (antibody, V domains shown, constant regions without entry; synthetic humanized antibody light chain variable region sequence; synthetic humanized antibody heavy chain variable region sequence) VL: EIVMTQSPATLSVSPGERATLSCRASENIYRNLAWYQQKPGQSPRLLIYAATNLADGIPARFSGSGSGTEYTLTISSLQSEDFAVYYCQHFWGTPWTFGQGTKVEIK VH: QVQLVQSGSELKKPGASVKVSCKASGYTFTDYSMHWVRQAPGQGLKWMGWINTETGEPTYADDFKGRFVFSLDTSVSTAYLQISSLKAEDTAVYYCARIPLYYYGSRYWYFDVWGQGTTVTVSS
5.5

Cited source: patent US10428140B2
